Assay: Metal chelating activity of the compound assessed as formation of iron complex by fluorescence quenching assay
Format: physicochemical
Some compounds, each annotated with its measured Ka.
property label: Ka (L/mol)

line notation | quantitative result
CCNc1cc2c(cc1[N+](=O)[O-])C(=O)C[C@H]1[C@](C)(C(=O)OC)CCC[C@]21C | 138.3
CCCNc1cc2c(cc1[N+](=O)[O-])C(=O)C[C@H]1[C@](C)(C(=O)OC)CCC[C@]21C | 135.7
COC(=O)[C@]1(C)CCC[C@]2(C)c3cc(Nc4ccc(C)cc4)c([N+](=O)[O-])cc3C(=O)C[C@@H]12 | 122.7

----------
Assay: Metal chelating activity of the compound assessed as formation of copper complex by fluorescence quenching assay
Format: physicochemical
In plain terms, low Ka, meaning strictly below 70 L/mol, gives y, and everything else gives n.

line notation | cat
CNc1cc2c(cc1[N+](=O)[O-])C(=O)C[C@H]1[C@](C)(C(=O)OC)CCC[C@]21C | n
COC(=O)[C@]1(C)CCC[C@]2(C)c3cc(Nc4ccc(C)cc4)c([N+](=O)[O-])cc3C(=O)C[C@@H]12 | y
COC(=O)[C@]1(C)CCC[C@]2(C)c3cc(Nc4ccc(OC)cc4)c([N+](=O)[O-])cc3C(=O)C[C@@H]12 | n
COC(=O)[C@]1(C)CCC[C@]2(C)c3cc(Nc4ccccc4)c([N+](=O)[O-])cc3C(=O)C[C@@H]12 | y
COC(=O)[C@]1(C)CCC[C@]2(C)c3cc(NCCN)c([N+](=O)[O-])cc3C(=O)C[C@@H]12 | n
CCNc1cc2c(cc1[N+](=O)[O-])C(=O)C[C@H]1[C@](C)(C(=O)OC)CCC[C@]21C | n
CCCNc1cc2c(cc1[N+](=O)[O-])C(=O)C[C@H]1[C@](C)(C(=O)OC)CCC[C@]21C | y
